For each record, write down the corresponding reverse-splicing fitness.
B1: Azoarcus group I ribozyme (parent)
chain: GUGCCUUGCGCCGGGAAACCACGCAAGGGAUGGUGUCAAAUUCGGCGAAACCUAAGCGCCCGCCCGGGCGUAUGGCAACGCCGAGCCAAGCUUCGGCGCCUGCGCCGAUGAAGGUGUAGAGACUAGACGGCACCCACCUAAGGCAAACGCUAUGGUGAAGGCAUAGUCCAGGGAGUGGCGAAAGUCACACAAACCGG

# Variants of: B1
# Assay Text: reverse-splicing fitness (ratio to wild type); higher = more active; in vitro selection; Mg2+ level not given
Please respond with just the number, no unit label.

Prompt line: Assign reverse-splicing fitness to the following record: A111C A145C C150A U176C
Response line: 0.104

Prompt line: Specify reported reverse-splicing fitness for the variant shown: C82U A111C C150G C169A
Response line: 0.00807

Prompt line: # return recorded reverse-splicing fitness for entry C82U A111U A120G A145C U176C
Response line: 0.00925

Prompt line: Fill in reverse-splicing fitness for record C82G A111G A145U C150G C169A U176C
Response line: 0.0155

Prompt line: Return reverse-splicing fitness (reported value) for this variant: A111U A120C C150U C169A U176A
Response line: 0.018

Prompt line: In one line, give reported reverse-splicing fitness of the entry A111U A120G A145C C169G .
Response line: 0.193

Prompt line: Could you please provide reported reverse-splicing fitness for C82U A120G A145G C150U C169U U176C ? Thanks!
Response line: 0.0164

Prompt line: Tell me its reverse-splicing fitness given C82G A111G A120G C150G C169G U176G as the entry.
Response line: 0.0053

Prompt line: Report reverse-splicing fitness for C82G A111U A120G C150A C169U U176A
Response line: 0.0244

Prompt line: Could you please provide reported reverse-splicing fitness for A111G A145C C150A C169G U176A ? Thanks!
Response line: 0.02

Prompt line: Respond only with reverse-splicing fitness recorded for C82G A120C C150A C169A U176A
Response line: 0.0216

Prompt line: Given the variant A111G A120U A145C C150A C169A U176C , write its reported reverse-splicing fitness.
Response line: 0.00206

Prompt line: Let me know recorded reverse-splicing fitness for C82A A111G A145C C150U U176C , thanks.
Response line: 0.0542

Prompt line: Could you please provide reported reverse-splicing fitness for A111G A120C C150A ? Thanks!
Response line: 0.124

Prompt line: Query reverse-splicing fitness for C82U A120G A145U C169U U176C
Response line: 0.0159

Prompt line: Give a short answer stating reported reverse-splicing fitness for C82U A111C A145U C169A .
Response line: 0.00715

Prompt line: Return reported reverse-splicing fitness. Input variant: C82A A111C A120U A145G C150G C169G U176G
Response line: 0.00456

Prompt line: Report measured reverse-splicing fitness; entry is C82G A111U A120G A145G C150U C169U U176G
Response line: 0.00561

Prompt line: // Input: C82A A120U C150G U176C . Output its reverse-splicing fitness only.
Response line: 0.00779

Prompt line: Write down reverse-splicing fitness measured for item A111G A120U A145U C150A C169A U176G
Response line: 0.00207

Prompt line: Specify reverse-splicing fitness for C82G A111U A120C A145G C150U C169A and stop.
Response line: 0.0111

Prompt line: Quickly give me recorded reverse-splicing fitness for C82G A145C C150A C169U
Response line: 0.00875

Prompt line: // Input: C82U A111U A120U A145C C150G C169A U176C . Output its reverse-splicing fitness only.
Response line: 0.00247

Prompt line: Report measured reverse-splicing fitness; entry is C82G A120U A145G C150A C169A U176C
Response line: 0.00287

Prompt line: Please give the documented reverse-splicing fitness of A111G C169G
Response line: 0.117

Prompt line: Given the variant C82A A111G A120U A145C C150A U176A , write its reported reverse-splicing fitness.
Response line: 0.003

Prompt line: Answer with reported reverse-splicing fitness of C82U A111G A120C A145C C150G C169U U176G
Response line: 0.00424

Prompt line: Specify measured reverse-splicing fitness for A111U A120U A145U C150A C169U U176G .
Response line: 0.00245

Prompt line: Using the record for C82G A145C C150U U176C , state its measured reverse-splicing fitness.
Response line: 0.0809

Prompt line: Specify reported reverse-splicing fitness for the variant shown: A111C A120C A145C C150A U176C
Response line: 0.0293

Prompt line: Supply reverse-splicing fitness value. Item: C82A A111C A145C C150U
Response line: 0.0486

Prompt line: For the variant C82A A111U A120C A145C C150A C169G U176A , give its measured reverse-splicing fitness value.
Response line: 0.0385

Prompt line: Supply measured reverse-splicing fitness of A111U A120C A145U C150G C169U in your reply.
Response line: 0.0242

Prompt line: In one line, give reported reverse-splicing fitness of the entry C82G A111C A120C A145G C150G C169G U176A .
Response line: 0.0118

Prompt line: Quickly give me recorded reverse-splicing fitness for A120G A145C C150G
Response line: 0.0854

Prompt line: Look up and state reported reverse-splicing fitness for C82A A111C A120U A145C C150G C169G
Response line: 0.00355

Prompt line: Return reverse-splicing fitness for the following variant: A120U A145G C150U C169A U176C
Response line: 0.00469

Prompt line: Retrieve reverse-splicing fitness measured for C82A A111C A120G A145G C150A U176C and print it.
Response line: 0.0185

Prompt line: Indicate its recorded reverse-splicing fitness; the variant in question is C82G A111G A120C A145U C150G C169G U176A
Response line: 0.00957

Prompt line: Indicate the recorded reverse-splicing fitness value for this variant: A111G A145G C169A U176A
Response line: 0.0226

Prompt line: Given C82A A111G A120G C150A C169A , respond with its reverse-splicing fitness.
Response line: 0.0103

Prompt line: Determine from records and report reverse-splicing fitness for C82A A111C A120G C150A U176G
Response line: 0.00789

Prompt line: Provide only the value of recorded reverse-splicing fitness for C82U A111U A120U A145C C150G C169A U176G
Response line: 0.00281

Prompt line: Consider the variant C82G A111G A120U A145C C150G C169G . State its measured reverse-splicing fitness.
Response line: 0.0027

Prompt line: Name the recorded reverse-splicing fitness of the variant listed here: C82U A111U A120G A145C C150A C169G U176C
Response line: 0.0136

Prompt line: Entry C82A A120C A145U C150A C169A needs its reverse-splicing fitness filled in; supply it.
Response line: 0.0105
